# EXPERIMENT_DESCRIPTION: Toxicity in male BALB/c mouse assessed as survival rate at 90.9 mg/kg, ip measured after 6 days relative to control
# Assay type: organism-based
# REPORTED_CONDITIONS: in vivo, time 6 day
VALUE_TYPE: survival at 144 h (%)
Unit % implied. Number only.

Inquiry: Query: survival at 144 h; subject: `CCCCCCCCCC(=O)N[C@H](CCCN)C(=O)N[C@H](Cc1ccc(O)cc1)C(=O)N[C@H](Cc1c[nH]c2ccccc12)C(=O)N[C@H](CCCN)C(=O)N[C@@H](CCCN)C(=O)NCC(=O)N[C@H](CCCN)C(=O)N[C@@H](Cc1c[nH]c2ccccc12)C(=O)N[C@H](C(=O)N[C@H](C(=O)NCC(=O)N[C@@H](CO)C(=O)O)[C@@H](C)CC)[C@@H](C)O`
Reply text: 12.5

----------
# System: Erythrocyte
# EXPERIMENT_DESCRIPTION: Hemolytic activity in mouse red blood cell assessed as hemolysis incubated for 1 hr
# Type: toxicity, cell-based
Hi there, I'd appreciate the recorded MHC for every entry that follows.
Unit µM implied. Number only.

Inquiry: Give MHC (Erythrocyte) of the following compound: CCC(C)CCC(=O)N[C@H](CC(N)=O)C(=O)N[C@H](Cc1ccc(C)cc1)C(=O)N[C@H](Cc1c[nH]c2ccccc12)C(=O)N[C@H](CCCN)C(=O)N[C@@H](CCCN)C(=O)NCC(=O)N[C@H](CCCN)C(=O)N[C@@H](Cc1c[nH]c2ccccc12)C(=O)N[C@@H]1C(=O)N[C@@H]([C@@H](C)CC)C(=O)NCC(=O)N[C@@H](CO)C(=O)O[C@@H]1C (mixture of isomers)
Reply text: 32

Inquiry: Also need CCC(C)CCC(=O)N[C@H](CC(N)=O)C(=O)N[C@H](Cc1ccc(O)cc1)C(=O)N[C@H](Cc1c[nH]c2ccccc12)C(=O)N[C@H](CCCNC(=N)N)C(=O)N[C@@H](CCCNC(=N)N)C(=O)NCC(=O)N[C@H](CCCNC(=N)N)C(=O)N[C@@H](Cc1c[nH]c2ccccc12)C(=O)N[C@@H]1C(=O)N[C@@H]([C@@H](C)CC)C(=O)NCC(=O)N[C@@H](CO)C(=O)O[C@@H]1C (mixture of isomers) , thanks.
Reply text: 128

Inquiry: Also need CCC(C)CCC(=O)N[C@H](CC(N)=O)C(=O)N[C@H](Cc1c[nH]c2ccccc12)C(=O)N[C@H](Cc1c[nH]c2ccccc12)C(=O)N[C@H](CCCN)C(=O)N[C@@H](CCCN)C(=O)NCC(=O)N[C@H](CCCN)C(=O)N[C@@H](Cc1c[nH]c2ccccc12)C(=O)N[C@@H]1C(=O)N[C@@H]([C@@H](C)CC)C(=O)NCC(=O)N[C@@H](CO)C(=O)O[C@@H]1C (mixture of isomers) , thanks.
Reply text: 64

----------
# EXPERIMENT_DESCRIPTION: Cytotoxicity against human HK-2 cells measured after 24 hrs MTT assay
# Assay type: toxicity, cell-based
Bridge positions count the residues as written; N and C are the ends. Square brackets hold non-standard residues; d marks the D form. Peptide text beside a SMILES is read from it. * marks the point of attachment. ξ: configuration not given here. Hexanoyl(4ξ-Me) = CCC(C)CCC(=O)*; dOrn = NCCC[C@@H](N)C(=O)O; Orn = NCCC[C@H](N)C(=O)O
Hi there, I'd appreciate the recorded IC50 at 24 h for every entry that follows.
Unit µM implied. Number only.

Inquiry: Query: IC50 at 24 h; subject: CCC(C)CCC(=O)N[C@H](CC(N)=O)C(=O)N[C@H](Cc1ccc(O)cc1)C(=O)N[C@H](Cc1c[nH]c2ccccc12)C(=O)N[C@H](CCCN)C(=O)N[C@@H](CCCN)C(=O)NCC(=O)N[C@H](CCCN)C(=O)N[C@@H](Cc1c[nH]c2ccccc12)C(=O)N[C@@H]1C(=O)N[C@@H]([C@@H](C)CC)C(=O)NCC(=O)N[C@@H](CO)C(=O)O[C@@H]1C (some centres not stated) ({Hexanoyl(4ξ-Me)}-[dN][dY][dW][dOrn][Orn]G[dOrn]WTIGS; ester 9-C)
Reply text: 36.5

Inquiry: Also need `CCCCCCCCCC(=O)N[C@H](CCCN)C(=O)N[C@H](Cc1ccc(O)cc1)C(=O)N[C@H](Cc1c[nH]c2ccccc12)C(=O)N[C@H](CCCN)C(=O)N[C@@H](CCCN)C(=O)NCC(=O)N[C@H](CCCN)C(=O)N[C@@H](Cc1c[nH]c2ccccc12)C(=O)N[C@H](C(=O)N[C@H](C(=O)NCC(=O)N[C@@H](CO)C(=O)O)[C@@H](C)CC)[C@@H](C)O` , thanks.
Reply text: 21.1

----------
# Test system: Acinetobacter baumannii
# EXPERIMENT_DESCRIPTION: Antibacterial activity against Acinetobacter baumannii ATCC 19606 incubated for 18 to 24 hrs by broth microdilution method
# Format: functional
# REPORTED_CONDITIONS: time 18-24 hrs
Bridge positions count the residues as written; N and C are the ends. Square brackets hold non-standard residues; d marks the D form. Peptide text beside a SMILES is read from it. * marks the point of attachment. dOrn = NCCC[C@@H](N)C(=O)O; Octanoyl = CCCCCCCC(=O)*; Orn = NCCC[C@H](N)C(=O)O
VALUE_TYPE: MIC (µM)
Unit µM implied. Number only.

Inquiry: Query: MIC; subject: CCCCCCCC(=O)N[C@H](CC(N)=O)C(=O)N[C@H](Cc1ccc(O)cc1)C(=O)N[C@H](Cc1c[nH]c2ccccc12)C(=O)N[C@H](CCCN)C(=O)N[C@@H](CCCN)C(=O)NCC(=O)N[C@H](CCCN)C(=O)N[C@@H](Cc1c[nH]c2ccccc12)C(=O)N[C@@H]1C(=O)N[C@@H]([C@@H](C)CC)C(=O)NCC(=O)N[C@@H](CO)C(=O)O[C@@H]1C (Octanoyl-[dN][dY][dW][dOrn][Orn]G[dOrn]WTIGS; ester 9-C)
Reply text: 4

Inquiry: Also need CCC(C)CCC(=O)N[C@H](CC(N)=O)C(=O)N[C@H](Cc1ccc(O)cc1)C(=O)N[C@H](Cc1c[nH]c2ccccc12)C(=O)N[C@H](CCCCN)C(=O)N[C@@H](CCCCN)C(=O)NCC(=O)N[C@H](CCCCN)C(=O)N[C@@H](Cc1c[nH]c2ccccc12)C(=O)N[C@@H]1C(=O)N[C@@H]([C@@H](C)CC)C(=O)NCC(=O)N[C@@H](CO)C(=O)O[C@@H]1C (some centres not stated) , thanks.
Reply text: 8

----------
# EXPERIMENT_DESCRIPTION: Toxicity in male BALB/c mouse assessed as survival rate at 62.6 mg/kg, ip measured after 6 days relative to control
# Assay type: organism-based
# REPORTED_CONDITIONS: in vivo, time 6 day
VALUE_TYPE: survival at 144 h (%)
Unit % implied. Number only.

Inquiry: Query: survival at 144 h; subject: `CCCCCCCCCC(=O)N[C@H](CCCN)C(=O)N[C@H](Cc1ccc(O)cc1)C(=O)N[C@H](Cc1c[nH]c2ccccc12)C(=O)N[C@H](CCCN)C(=O)N[C@@H](CCCN)C(=O)NCC(=O)N[C@H](CCCN)C(=O)N[C@@H](Cc1c[nH]c2ccccc12)C(=O)N[C@H](C(=O)N[C@H](C(=O)NCC(=O)N[C@@H](CO)C(=O)O)[C@@H](C)CC)[C@@H](C)O`
Reply text: 12.5

----------
# Test system: Erythrocyte
# EXPERIMENT_DESCRIPTION: Hemolytic activity in mouse red blood cell assessed as hemolysis incubated for 1 hr
# Format: toxicity, cell-based
VALUE_TYPE: MHC (µM)
Unit µM implied. Number only.

Inquiry: Give MHC (Erythrocyte) of the following compound: CCC(C)CCC(=O)N[C@H](CC(N)=O)C(=O)N[C@H](Cc1ccc(C(C)(C)C)cc1)C(=O)N[C@H](Cc1c[nH]c2ccccc12)C(=O)N[C@H](CCCN)C(=O)N[C@@H](CCCN)C(=O)NCC(=O)N[C@H](CCCN)C(=O)N[C@@H](Cc1c[nH]c2ccccc12)C(=O)N[C@@H]1C(=O)N[C@@H]([C@@H](C)CC)C(=O)NCC(=O)N[C@@H](CO)C(=O)O[C@@H]1C (mixture of isomers)
Reply text: 16

----------
# System: Klebsiella pneumoniae
# EXPERIMENT_DESCRIPTION: Antibacterial activity against Klebsiella pneumoniae ATCC 700603 incubated for 18 to 24 hrs by broth microdilution method
# Assay type: functional
# REPORTED_CONDITIONS: time 18-24 hrs
Bridge positions count the residues as written; N and C are the ends. Square brackets hold non-standard residues; d marks the D form. Peptide text beside a SMILES is read from it. * marks the point of attachment. Lauroyl = CCCCCCCCCCCC(=O)*; dOrn = NCCC[C@@H](N)C(=O)O; Orn = NCCC[C@H](N)C(=O)O
Hi there, I'd appreciate the recorded MIC for every entry that follows.
Returns: string containing the number followed by the unit.

Inquiry: Query: MIC; subject: CCCCCCCCCCCC(=O)N[C@H](CC(N)=O)C(=O)N[C@H](Cc1ccc(O)cc1)C(=O)N[C@H](Cc1c[nH]c2ccccc12)C(=O)N[C@H](CCCN)C(=O)N[C@@H](CCCN)C(=O)NCC(=O)N[C@H](CCCN)C(=O)N[C@@H](Cc1c[nH]c2ccccc12)C(=O)N[C@@H]1C(=O)N[C@@H]([C@@H](C)CC)C(=O)NCC(=O)N[C@@H](CO)C(=O)O[C@@H]1C (Lauroyl-[dN][dY][dW][dOrn][Orn]G[dOrn]WTIGS; ester 9-C)
Reply text: 8 µM

Inquiry: Also need CCC(C)CCC(=O)N[C@H](CC(N)=O)C(=O)N[C@H](Cc1ccc(O)cc1)C(=O)N[C@H](Cc1c[nH]c2ccccc12)C(=O)N[C@H](C)C(=O)N[C@@H](CCCN)C(=O)NCC(=O)N[C@H](CCCN)C(=O)N[C@@H](Cc1c[nH]c2ccccc12)C(=O)N[C@@H]1C(=O)N[C@@H]([C@@H](C)CC)C(=O)NCC(=O)N[C@@H](CO)C(=O)O[C@@H]1C (mixture of isomers) , thanks.
Reply text: 8 µM

Inquiry: Also need CCC(C)CCC(=O)N[C@H](CC(N)=O)C(=O)N[C@H](Cc1ccc(C)cc1)C(=O)N[C@H](Cc1c[nH]c2ccccc12)C(=O)N[C@H](CCCN)C(=O)N[C@@H](CCCN)C(=O)NCC(=O)N[C@H](CCCN)C(=O)N[C@@H](Cc1c[nH]c2ccccc12)C(=O)N[C@@H]1C(=O)N[C@@H]([C@@H](C)CC)C(=O)NCC(=O)N[C@@H](CO)C(=O)O[C@@H]1C (mixture of isomers) , thanks.
Reply text: 8 µM

Inquiry: Also need CCC(C)CCC(=O)N[C@H](CC(N)=O)C(=O)N[C@H](Cc1ccc2ccccc2c1)C(=O)N[C@H](Cc1c[nH]c2ccccc12)C(=O)N[C@H](CCCN)C(=O)N[C@@H](CCCN)C(=O)NCC(=O)N[C@H](CCCN)C(=O)N[C@@H](Cc1c[nH]c2ccccc12)C(=O)N[C@@H]1C(=O)N[C@@H]([C@@H](C)CC)C(=O)NCC(=O)N[C@@H](CO)C(=O)O[C@@H]1C (mixture of isomers) , thanks.
Reply text: 8 µM

Inquiry: Also need CCC(C)CCC(=O)N[C@H](CC(N)=O)C(=O)N[C@H](Cc1ccc(-c2ccccc2)cc1)C(=O)N[C@H](Cc1c[nH]c2ccccc12)C(=O)N[C@H](CCCN)C(=O)N[C@@H](CCCN)C(=O)NCC(=O)N[C@H](CCCN)C(=O)N[C@@H](Cc1c[nH]c2ccccc12)C(=O)N[C@@H]1C(=O)N[C@@H]([C@@H](C)CC)C(=O)NCC(=O)N[C@@H](CO)C(=O)O[C@@H]1C (mixture of isomers) , thanks.
Reply text: 16 µM

Inquiry: Also need CCC(C)CCC(=O)N[C@H](CC(N)=O)C(=O)N[C@H](Cc1ccc(N)cc1)C(=O)N[C@H](Cc1c[nH]c2ccccc12)C(=O)N[C@H](CCCN)C(=O)N[C@@H](CCCN)C(=O)NCC(=O)N[C@H](CCCN)C(=O)N[C@@H](Cc1c[nH]c2ccccc12)C(=O)N[C@@H]1C(=O)N[C@@H]([C@@H](C)CC)C(=O)NCC(=O)N[C@@H](CO)C(=O)O[C@@H]1C (mixture of isomers) , thanks.
Reply text: 16 µM

Inquiry: Also need CCC(C)CCC(=O)N[C@H](CC(N)=O)C(=O)N[C@H](Cc1ccc(O)cc1)C(=O)N[C@H](Cc1c[nH]c2ccccc12)C(=O)N[C@H](CN)C(=O)N[C@@H](CN)C(=O)NCC(=O)N[C@H](CN)C(=O)N[C@@H](Cc1c[nH]c2ccccc12)C(=O)N[C@@H]1C(=O)N[C@@H]([C@@H](C)CC)C(=O)NCC(=O)N[C@@H](CO)C(=O)O[C@@H]1C (mixture of isomers) , thanks.
Reply text: 16 µM

Inquiry: Also need CCC(C)CCC(=O)N[C@H](CC(N)=O)C(=O)N[C@H](Cc1ccc(O)cc1)C(=O)N[C@H](Cc1c[nH]c2ccccc12)C(=O)N[C@H](CCN)C(=O)N[C@@H](CCN)C(=O)NCC(=O)N[C@H](CCN)C(=O)N[C@@H](Cc1c[nH]c2ccccc12)C(=O)N[C@@H]1C(=O)N[C@@H]([C@@H](C)CC)C(=O)NCC(=O)N[C@@H](CO)C(=O)O[C@@H]1C (stereo partly specified) , thanks.
Reply text: 8 µM

Inquiry: Also need CCC(C)CCC(=O)N[C@H](CC(N)=O)C(=O)N[C@H](Cc1ccc(O)cc1)C(=O)N[C@H](Cc1c[nH]c2ccccc12)C(=O)N[C@H](CCCN)C(=O)N[C@@H](CCCN)C(=O)NCC(=O)N[C@H](C)C(=O)N[C@@H](Cc1c[nH]c2ccccc12)C(=O)N[C@@H]1C(=O)N[C@@H]([C@@H](C)CC)C(=O)NCC(=O)N[C@@H](CO)C(=O)O[C@@H]1C (mixture of isomers) , thanks.
Reply text: 16 µM

Inquiry: Also need CCC(C)CCC(=O)N[C@H](CCCN)C(=O)N[C@H](Cc1ccc(O)cc1)C(=O)N[C@H](Cc1c[nH]c2ccccc12)C(=O)N[C@H](CCCN)C(=O)N[C@@H](CCCN)C(=O)N[C@@H](CCCN)C(=O)N[C@H](CCCN)C(=O)N[C@@H](Cc1c[nH]c2ccccc12)C(=O)N[C@@H]1C(=O)N[C@@H]([C@@H](C)CC)C(=O)NCC(=O)N[C@@H](CO)C(=O)O[C@@H]1C (stereo partly specified) , thanks.
Reply text: 2 µM

Inquiry: Also need CCC(C)CCC(=O)N[C@H](CC(N)=O)C(=O)N[C@H](C)C(=O)N[C@H](Cc1c[nH]c2ccccc12)C(=O)N[C@H](CCCN)C(=O)N[C@@H](CCCN)C(=O)NCC(=O)N[C@H](CCCN)C(=O)N[C@@H](Cc1c[nH]c2ccccc12)C(=O)N[C@@H]1C(=O)N[C@@H]([C@@H](C)CC)C(=O)NCC(=O)N[C@@H](CO)C(=O)O[C@@H]1C (mixture of isomers) , thanks.
Reply text: 32 µM
